Target: OATP1B3 (Homo sapiens)
Construct: host or cells: A431
Sequence (Q9NPD5 whole entry): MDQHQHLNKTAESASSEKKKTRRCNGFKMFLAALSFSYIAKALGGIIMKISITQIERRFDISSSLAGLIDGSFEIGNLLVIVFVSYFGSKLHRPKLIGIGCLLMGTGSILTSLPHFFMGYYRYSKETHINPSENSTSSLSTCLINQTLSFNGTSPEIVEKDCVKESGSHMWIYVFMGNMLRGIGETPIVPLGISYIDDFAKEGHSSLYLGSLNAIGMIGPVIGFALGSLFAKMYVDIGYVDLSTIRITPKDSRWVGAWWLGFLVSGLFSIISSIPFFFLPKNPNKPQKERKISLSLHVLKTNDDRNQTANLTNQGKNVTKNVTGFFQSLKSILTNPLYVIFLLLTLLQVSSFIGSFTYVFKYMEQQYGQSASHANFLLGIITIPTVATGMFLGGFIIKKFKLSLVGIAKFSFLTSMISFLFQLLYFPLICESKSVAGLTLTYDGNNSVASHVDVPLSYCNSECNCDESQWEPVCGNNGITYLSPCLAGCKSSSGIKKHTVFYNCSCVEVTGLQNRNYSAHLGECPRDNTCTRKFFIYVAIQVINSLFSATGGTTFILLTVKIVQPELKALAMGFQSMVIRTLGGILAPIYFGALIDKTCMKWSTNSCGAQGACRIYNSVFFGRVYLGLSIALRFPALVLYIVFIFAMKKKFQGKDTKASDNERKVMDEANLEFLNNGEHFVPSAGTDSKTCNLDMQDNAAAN
Assay: OATP1B3-mediated pyranine uptake in A431 cells overexpressing OATP1B3
Type: cell-based
MEASURE NAME: IC50
Remember to put the unit after the number in your answer.

## Input Recorded IC50 of COc1cc(-c2oc3cc(O)cc(O)c3c(=O)c2O)ccc1O , please.
## Output 3.1 µM
